Source: the supplement of paper PMC7125110

Answer each item with its documented self-cleavage kobs at 640 uM GlcN6P.
B1: glmS ribozyme (parent)
chain: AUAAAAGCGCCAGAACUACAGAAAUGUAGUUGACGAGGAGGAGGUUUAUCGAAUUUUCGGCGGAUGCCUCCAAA

# Variants of: B1
# protocol: self-cleavage kobs at 640 uM GlcN6P; higher = faster cleavage; RNA array
# condition: with glucosamine-6-phosphate
Fewer inactive variants are shown than the library holds.
Give bare numbers, in s⁻¹.

Known self-cleavage kobs at 640 uM GlcN6P results, listed for orientation:
changes	reportedValue
C50G G62U	0.000122
C10A C67U C68U	0.000489
A39U G40A A64G	0.000775

Please state, for each entry, its recorded self-cleavage kobs at 640 uM GlcN6P.
1. A6G U47G
2. G13C A42G
3. C16U A53U U54G C58A
4. U54G U55C U56G G59C U69G
5. C34G U47G C58A C68A

3.81e-05
3.16e-05
3.02e-05
0.000119
6.8e-05

Please state, for each entry, its recorded self-cleavage kobs at 640 uM GlcN6P.
1. A48C U54C
2. G29A U69A
3. A39U A52G

1. 9.71e-05
2. 7.98e-05
3. 0.000134

Please state, for each entry, its recorded self-cleavage kobs at 640 uM GlcN6P.
1. U30G U47C C70G
2. A12C A53C
3. G32U C67A
4. A48C C70U

["5.55e-05", 0.000662, "5.83e-05", "8.59e-05"]

Please state, for each entry, its recorded self-cleavage kobs at 640 uM GlcN6P.
1. C67A C71U
2. U47A A48G

1: 0.000414; 2: 7.58e-05
